Hi there, I'd appreciate the recorded absorbance 490 nm/630 nm for every entry that follows.
molecular target: full-length recombinant mouse PAD4 (mouse) (UniProt Q9Z183); experiment: ELISA, mouse PAD4 on plate, antibody 1 ug/mL
Sequence (Q9Z183 whole entry): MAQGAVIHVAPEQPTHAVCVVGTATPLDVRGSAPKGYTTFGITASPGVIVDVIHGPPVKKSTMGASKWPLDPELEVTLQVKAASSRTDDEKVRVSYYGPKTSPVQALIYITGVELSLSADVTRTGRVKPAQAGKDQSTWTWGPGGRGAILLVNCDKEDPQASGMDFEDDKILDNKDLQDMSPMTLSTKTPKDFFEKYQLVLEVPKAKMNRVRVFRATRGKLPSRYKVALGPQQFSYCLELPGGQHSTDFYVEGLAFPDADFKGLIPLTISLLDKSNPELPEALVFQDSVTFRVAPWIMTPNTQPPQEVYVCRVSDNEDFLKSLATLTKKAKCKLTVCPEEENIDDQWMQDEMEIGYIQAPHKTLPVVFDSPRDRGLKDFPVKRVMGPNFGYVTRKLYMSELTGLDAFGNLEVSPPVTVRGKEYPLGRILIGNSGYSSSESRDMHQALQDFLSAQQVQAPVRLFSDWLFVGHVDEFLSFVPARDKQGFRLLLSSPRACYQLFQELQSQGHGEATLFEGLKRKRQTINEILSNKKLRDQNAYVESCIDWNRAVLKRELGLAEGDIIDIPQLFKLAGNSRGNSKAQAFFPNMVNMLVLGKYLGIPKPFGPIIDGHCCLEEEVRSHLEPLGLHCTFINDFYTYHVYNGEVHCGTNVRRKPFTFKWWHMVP
# unit: OD | format: bare number

Input line: Return reported absorbance 490 nm/630 nm. Input binder: A11 (antibody, IgG1, V domains shown) VH: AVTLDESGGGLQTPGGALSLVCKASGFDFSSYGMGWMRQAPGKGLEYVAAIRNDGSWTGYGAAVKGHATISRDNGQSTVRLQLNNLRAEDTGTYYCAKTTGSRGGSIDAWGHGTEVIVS VL: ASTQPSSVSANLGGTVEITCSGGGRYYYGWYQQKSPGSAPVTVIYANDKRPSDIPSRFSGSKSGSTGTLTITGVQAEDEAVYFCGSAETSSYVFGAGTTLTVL
Output line: 2.24

Input line: Return reported absorbance 490 nm/630 nm. Input binder: E9 (antibody, IgG1, V domains shown) VH: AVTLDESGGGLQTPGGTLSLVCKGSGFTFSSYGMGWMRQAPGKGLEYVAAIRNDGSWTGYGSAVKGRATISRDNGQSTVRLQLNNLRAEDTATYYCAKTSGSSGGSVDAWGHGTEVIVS VL: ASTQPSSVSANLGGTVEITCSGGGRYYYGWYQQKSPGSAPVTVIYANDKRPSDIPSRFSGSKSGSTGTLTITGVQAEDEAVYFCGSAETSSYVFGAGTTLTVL
Output line: 2.23

Input line: Return reported absorbance 490 nm/630 nm. Input binder: G9 (antibody, IgG1, V domains shown) VH: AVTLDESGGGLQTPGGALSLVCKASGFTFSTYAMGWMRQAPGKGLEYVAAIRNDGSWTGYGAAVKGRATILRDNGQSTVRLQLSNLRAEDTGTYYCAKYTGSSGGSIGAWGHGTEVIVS VL: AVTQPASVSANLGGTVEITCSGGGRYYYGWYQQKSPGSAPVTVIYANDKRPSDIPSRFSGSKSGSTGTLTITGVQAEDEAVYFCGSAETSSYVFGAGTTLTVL
Output line: 2.3
